src = patent US20170008955A1

tested on: T1, cSNK:BSA conjugate (bovine, head-to-tail cyclized; conjugated to BSA carrier)
T1 construct: also called BSA-cSNK
T1 sequence (P02769 25-607 limits assumed): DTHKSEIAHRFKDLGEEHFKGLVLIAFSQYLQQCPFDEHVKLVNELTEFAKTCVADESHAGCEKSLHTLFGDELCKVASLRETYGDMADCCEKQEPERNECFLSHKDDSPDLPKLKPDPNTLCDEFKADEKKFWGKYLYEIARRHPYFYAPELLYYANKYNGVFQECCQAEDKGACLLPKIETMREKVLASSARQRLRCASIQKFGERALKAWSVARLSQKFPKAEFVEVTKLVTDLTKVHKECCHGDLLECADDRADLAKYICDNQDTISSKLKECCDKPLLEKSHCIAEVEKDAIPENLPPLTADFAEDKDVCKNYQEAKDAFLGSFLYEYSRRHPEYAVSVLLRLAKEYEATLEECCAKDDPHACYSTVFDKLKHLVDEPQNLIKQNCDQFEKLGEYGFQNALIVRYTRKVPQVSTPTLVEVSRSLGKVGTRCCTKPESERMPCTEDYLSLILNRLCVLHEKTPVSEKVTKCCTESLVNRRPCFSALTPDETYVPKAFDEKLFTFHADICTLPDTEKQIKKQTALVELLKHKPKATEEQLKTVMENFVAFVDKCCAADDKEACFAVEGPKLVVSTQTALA
measurement protocol: BLI (Octet), 1:1 model, BSA-cSNK
readout name: pKd
Field pKd (float): negative decimal logarithm of the concentration in molar.

Consider the binder HuΔ5E3-IgG1 (KQA) (antibody, V domains shown, human IgG1; also called huΔ5E3 KQA Mutation) VH: QVQLQQSGPEVKKPGASVKISCKASGYIFTSYYIQWVKQAPGQGLEWIGWIYPGNVNTKYNEKFKGKATLTADKSSSTAYMELSSLTSEDTAVYFCARMDYEAHYWGQGTTVTVSS VL: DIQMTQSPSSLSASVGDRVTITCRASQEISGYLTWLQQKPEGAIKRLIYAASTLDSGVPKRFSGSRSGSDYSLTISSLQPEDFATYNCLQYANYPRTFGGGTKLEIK and give its measured pKd. 8.89
